- ASSAY_TEXT: Body weights of SJSA-1 implanted nude mice (side effects)
- Format: in vivo
- STATED_CONDITIONS: Start of administration; dose per group 3.0/30.0/50.0 mg/kg as in Table 1
REPORTED_PROPERTY: Body Weights X ± SD (g), Start

>>> recorded_value("COc1cc(C(N)=O)ccc1NC(=O)[C@@H]1N[C@@H](CC(C)(C)C)C2(C(=O)Nc3cc(Cl)ccc32)[C@H]1c1cccc(Cl)c1F (mixture of isomers) [rac-SIP, reference compound]")
17.1
>>> recorded_value("COCCOCCOCCOC(=O)OC(C)OC(=O)c1ccc(NC(=O)[C@@H]2N[C@@H](CC(C)(C)C)[C@@]3(C(=O)Nc4cc(Cl)ccc43)[C@H]2c2cccc(Cl)c2F)c(OC)c1 (mixture of isomers) [rac-SIP-PEG-3]")
17.2
>>> recorded_value("COCCOCCOC(=O)OC(C)OC(=O)c1ccc(NC(=O)[C@@H]2N[C@@H](CC(C)(C)C)[C@@]3(C(=O)Nc4cc(Cl)ccc43)[C@H]2c2cccc(Cl)c2F)c(OC)c1 (mixture of isomers)")
17.0
>>> recorded_value("COc1cccc2c1C(=O)c1c(O)c3c(c(O)c1C2=O)C[C@@](O)(C(=O)CO)C[C@@H]3O[C@H]1C[C@H](N)[C@H](O)[C@H](C)O1 [Doxorubicin ADM, Doxorubicin, reference compound]")
17.4
>>> recorded_value("COCCOCCOCCOCCOCCOCCOCCOC(=O)OC(C)OC(=O)c1ccc(NC(=O)[C@@H]2N[C@@H](CC(C)(C)C)[C@@]3(C(=O)Nc4cc(Cl)ccc43)[C@H]2c2cccc(Cl)c2F)c(OC)c1 (mixture of isomers)")
17.1
>>> recorded_value("COCCOCCOCCOC(=O)OC(C)OC(=O)c1ccc(NC(=O)[C@@H]2N[C@@H](CC(C)(C)C)[C@@]3(C(=O)Nc4cc(Cl)ccc43)[C@H]2c2cccc(Cl)c2F)c(OC)c1 (single isomer, unassigned) [chiral-R-SIP-PEG-3]")
17.3
